Where do these numbers come from? They come from patent US20230157952A1.

# Purity at hr 0 annotations
assay: Effect of concentration on the stability of the solution (purity over time); details: 50 wt %; in water at 25° C.
Numbers only; they are read as %.

COMPOUND	READOUT	OBSERVED_MEASUREMENT
CCN(CC)CCOC(=O)Cc1c(C)n(C(=O)c2ccc(Cl)cc2)c2ccc(OC)cc12.Cl	Purity at hr 0	98.6
CCN(CC)CCOC(=O)Cc1sc(-c2ccccc2)nc1-c1ccc(Cl)cc1.Cl	Purity at hr 0	99.1
CCN(CC)CCOC(=O)Cc1ccc(C(=O)c2ccc(C)cc2)n1C.Cl	Purity at hr 0	98.2

Bench note: what Purity at hr 0 did CCN(CC)CCOC(=O)C(C)c1ccc2oc(-c3ccc(Cl)cc3)nc2c1.Cl (stereo not shown) show? 98.5

Further, for CCN(CC)CCOC(=O)CC1=C(C)C(=Cc2ccc([S+](C)[O-])cc2)c2ccc(F)cc21.Cl (stereo not shown) ? 97.7

Can you check CCN(CC)CCOC(=O)CCc1ccc2cc(OC)ccc2c1.Cl next? 98.5

Further, for CCN(CC)CCOC(=O)CCc1nc(-c2ccccc2)c(-c2ccccc2)o1.Cl ? 98.8

* * *

assay: Effect of concentration on the stability of the solution (purity over time); settings: 8 wt %; in water at 25° C.
Purity at Day 21: recorded values
Only the number, expressed in %, is required.

Please review the entries below; each comes with its answer.
MOLECULE	SCALE_UNIT	OBSERVED_MEASUREMENT
CCN(CC)CCOC(=O)CCc1ccc2cc(OC)ccc2c1.Cl	%	97.9
CCN(CC)CCOC(=O)Cc1ccc(C(=O)c2ccc(C)cc2)n1C.Cl	%	96.9
CCN(CC)CCOC(=O)C(C)c1ccc2oc(-c3ccc(Cl)cc3)nc2c1.Cl (centres unmarked)	%	97.8
CCN(CC)CCOC(=O)Cc1sc(-c2ccccc2)nc1-c1ccc(Cl)cc1.Cl	%	97.9

Okay, next one:
Look at this molecule and give its reported Purity at Day 21. CCN(CC)CCOC(=O)Cc1c(C)n(C(=O)c2ccc(Cl)cc2)c2ccc(OC)cc12.Cl 97.8

* * *

Listed here: items and their measured Purity(%) at day 0.
test: Effect of temperature (and pH) on the stability of the solution (purity); type: physicochemical; details: 7% solution in water, pH 4.3, day 0
Response body: numeric value in %, unit text excluded.

COMPOUND	SCALE_UNIT	Purity(%) at day 0
CCN(CC)CCOC(=O)Cc1c(C)n(C(=O)c2ccc(Cl)cc2)c2ccc(OC)cc12.Cl	%	98.8

# query: Purity(%) at day 0 of entry CCN(CC)CCOC(=O)C(C)c1ccc2oc(-c3ccc(Cl)cc3)nc2c1.Cl (centres unmarked) 98.6

Then what about the compound CCN(CC)CCOC(=O)CCc1ccc2cc(OC)ccc2c1.Cl ? 98.5

For CCN(CC)CCOC(=O)CCc1nc(-c2ccccc2)c(-c2ccccc2)o1.Cl then? 98.8

Likewise for CCN(CC)CCOC(=O)COc1nn(Cc2ccccc2)c2ccccc12.Cl ? 98.1

* * *

A collection of molecules and their measured Purity(%) at day 0
assay: Effect of temperature (and pH) on the stability of the solution (purity); format: physicochemical; conditions: 7% solution in water, pH 2.0, day 0

Recorded Purity(%) at day 0, per entry:
MOLECULE	OBSERVED_MEASUREMENT
CCN(CC)CCOC(=O)C(C)c1ccc2oc(-c3ccc(Cl)cc3)nc2c1.Cl (centres unmarked)	98.2 ± 0.3%
CCN(CC)CCOC(=O)COc1nn(Cc2ccccc2)c2ccccc12.Cl	97.7 ± 0.2%
CCN(CC)CCOC(=O)CCc1nc(-c2ccccc2)c(-c2ccccc2)o1.Cl	98.4 ± 0.3%
CCN(CC)CCOC(=O)Cc1ccc(C(=O)c2ccc(C)cc2)n1C.Cl	97.6 ± 0.3%

With those in mind, consider the next molecule.
Consider the molecule shown here: CCN(CC)CCOC(=O)COC(=O)Cc1c(C)n(C(=O)c2ccc(Cl)cc2)c2ccc(OC)cc12.Cl What is its recorded Purity(%) at day 0? 98.3 ± 0.3%
